As shown below, each of these compounds has a reported Survival rates of the cells value.
- Tested on: cells
- assay-procedure: Cytotoxicity test (MTT)
- Format: cell-based
- run-conditions: MC3T3-E1 cells, 10^−6M, 72 hrs, compared with the control group

- compound: "N=C(NO)c1ccc(OCCCCCOc2ccc(-c3nc(-c4cccnc4)sc3CC3CCCC3)cc2)cc1 [Example 49]"
  unit-label: "%"
  Survival rates of the cells: 83.5
- compound: "CCS(=O)(=O)Nc1nc(-c2ccc(OCCCCCOc3ccc(C(=N)NO)cc3)cc2)c(C)s1 [Example 93]"
  unit-label: "%"
  Survival rates of the cells: 66.8
- compound: "N=C(NO)c1ccc(OCCCCCOc2ccc(-c3nc(-c4ccccc4)sc3Cc3ccccc3)cc2)cc1 [Example 40]"
  unit-label: "%"
  Survival rates of the cells: 100.0

###

- System: cells
- assay-procedure: Cytotoxicity test (MTT)
- Assay type: cell-based
- run-conditions: MC3T3-E1 cells, 10^−6M, 72 hrs, compared with the control group
Everything with Survival rates of the cells lower than 70% is Not met; everything else, including exactly 70%, is Met.

- compound: "CCCCc1sc(C(C)(C)C)nc1-c1ccc(OCCCCCOc2ccc(C(=N)NO)cc2)cc1 [Example 37]"
  class-name: "Met"
- compound: "CCNc1nc(-c2ccc(OCCCCCOc3ccc(C(=N)NO)cc3)cc2)c(C)s1 [Example 87]"
  class-name: "Met"
- compound: "CCc1sc(NC(=O)c2ccncc2)nc1-c1ccc(OCCCCCOc2ccc(C(=N)NO)cc2)cc1 [Example 100]"
  class-name: "Not met"
- compound: "CN(Cc1cccnc1)c1nc(-c2ccc(OCCCCCOc3ccc(C(=N)NO)cc3)cc2)c(CC2CCCC2)s1 [Example 147]"
  class-name: "Met"
- compound: "CC(C)c1nc(-c2ccc(OCCCCCOc3ccc(C(=N)NO)cc3)cc2)c(CC2CCCC2)s1 [Example 47]"
  class-name: "Not met"
- compound: "CCc1sc(N(CCO)CCO)nc1-c1ccc(OCCCCCOc2ccc(C(=N)NO)cc2)cc1 [Example 139]"
  class-name: "Met"
- compound: "CCCNc1nc(-c2ccc(OC(C)CCCOc3ccc(C(=N)NO)cc3)cc2)c(C)s1 (stereo not shown) [Example 88]"
  class-name: "Met"
- compound: "CCCCc1sc(N(CCC)CCC)nc1-c1ccc(OCCCCCOc2ccc(C(=N)NO)cc2)cc1 [Example 146]"
  class-name: "Met"
- compound: "N=C(NO)c1ccc(OCCCCCOc2ccc(-c3csc(C4CCCCC4)n3)cc2)cc1 [Example 8]"
  class-name: "Met"
- compound: "CCc1sc(N(CC)CCO)nc1-c1ccc(OCCCCCOc2ccc(C(=N)NO)cc2)cc1 [Example 130]"
  class-name: "Met"
- compound: "CCc1sc(NC)nc1-c1ccc(OCCCCCOc2ccc(C(=N)NO)cc2)cc1 [Example 96]"
  class-name: "Not met"
- compound: "N=C(NO)c1ccc(OCCCCCOc2ccc(-c3nc(-c4ccccc4)sc3CC3CCCC3)cc2)cc1 [Example 48]"
  class-name: "Met"
- compound: "Cc1sc(NC(=O)c2ccncc2)nc1-c1ccc(OCCCCCOc2ccc(C(=N)NO)cc2)cc1 [Example 91]"
  class-name: "Not met"
- compound: "CCc1sc(N(C)Cc2ccccc2)nc1-c1ccc(OCCCCCOc2ccc(C(=N)NO)cc2)cc1 [Example 133]"
  class-name: "Not met"
- compound: "CNc1nc(-c2ccc(OCCCCCOc3ccc(C(=N)NO)cc3)cc2)c(Cc2ccccc2)s1 [Example 107]"
  class-name: "Not met"
